The measurements presented in this section are drawn from patent US20110294772A1.

System: K-562 (Leukaemia)
Assay: NCI60 panel IC50
Assay type: cell-based
Conditions: Homo sapiens, K562

compound | IC50 / µM
CN1CCCNc2c(c(=O)c2=O)NCCCN(C)CCCNc2c(c(=O)c2=O)NCCCN(C)CCCNc2c(c(=O)c2=O)NCCCN(C)CCCNc2c(c(=O)c2=O)NCCCN(C)CCCNc2c(c(=O)c2=O)NCCC1 | 4.07

* * *

Target: MET (Homo sapiens)
Sequence (P08581 25-1390): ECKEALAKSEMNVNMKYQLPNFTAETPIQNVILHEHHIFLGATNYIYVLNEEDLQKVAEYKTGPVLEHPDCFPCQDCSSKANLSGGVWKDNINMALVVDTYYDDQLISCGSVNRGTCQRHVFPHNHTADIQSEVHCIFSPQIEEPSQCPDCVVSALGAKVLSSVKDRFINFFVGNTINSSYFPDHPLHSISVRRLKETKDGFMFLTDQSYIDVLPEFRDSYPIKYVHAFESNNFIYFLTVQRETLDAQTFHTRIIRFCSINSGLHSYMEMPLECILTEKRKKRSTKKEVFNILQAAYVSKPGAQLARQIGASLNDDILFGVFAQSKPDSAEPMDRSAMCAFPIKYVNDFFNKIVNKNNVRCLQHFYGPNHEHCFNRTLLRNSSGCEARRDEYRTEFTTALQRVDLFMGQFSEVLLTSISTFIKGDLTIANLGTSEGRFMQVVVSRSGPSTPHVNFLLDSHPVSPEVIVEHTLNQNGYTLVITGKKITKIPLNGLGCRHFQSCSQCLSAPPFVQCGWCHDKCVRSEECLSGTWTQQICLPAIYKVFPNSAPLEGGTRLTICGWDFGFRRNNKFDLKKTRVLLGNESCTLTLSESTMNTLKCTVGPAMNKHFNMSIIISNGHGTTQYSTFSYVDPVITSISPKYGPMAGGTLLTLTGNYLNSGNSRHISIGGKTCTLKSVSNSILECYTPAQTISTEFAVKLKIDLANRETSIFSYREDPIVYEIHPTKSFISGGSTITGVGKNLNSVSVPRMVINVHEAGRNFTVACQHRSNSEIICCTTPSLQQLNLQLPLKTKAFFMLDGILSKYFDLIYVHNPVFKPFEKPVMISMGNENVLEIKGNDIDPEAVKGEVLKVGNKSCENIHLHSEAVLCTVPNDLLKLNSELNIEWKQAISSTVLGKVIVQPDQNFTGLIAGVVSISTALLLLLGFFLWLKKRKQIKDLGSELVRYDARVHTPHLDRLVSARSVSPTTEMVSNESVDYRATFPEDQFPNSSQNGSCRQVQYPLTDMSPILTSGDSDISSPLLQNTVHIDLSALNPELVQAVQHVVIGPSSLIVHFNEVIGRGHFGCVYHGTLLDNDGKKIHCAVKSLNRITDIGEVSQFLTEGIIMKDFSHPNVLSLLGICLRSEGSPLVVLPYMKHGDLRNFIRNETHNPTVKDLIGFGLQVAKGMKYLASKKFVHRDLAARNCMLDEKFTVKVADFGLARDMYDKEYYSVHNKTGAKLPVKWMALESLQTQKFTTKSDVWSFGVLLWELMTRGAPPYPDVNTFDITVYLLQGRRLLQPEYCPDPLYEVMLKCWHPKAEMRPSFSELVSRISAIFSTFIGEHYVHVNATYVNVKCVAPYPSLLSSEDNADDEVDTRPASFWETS
measuredProperty: IC50 (µM)

compound | measuredProperty | endpointValue
CN1CCCNc2c(c(=O)c2=O)NCCCN(C)CCCNc2c(c(=O)c2=O)NCCCN(C)CCCNc2c(c(=O)c2=O)NCCCN(C)CCCNc2c(c(=O)c2=O)NCCCN(C)CCCNc2c(c(=O)c2=O)NCCC1 | IC50 | 3.7
